Listed here: items and their measured FACS Cell Binding (Fold Above Background).
Molecular target: T1, monkey macaca fascicularis PRLR construct with an HA tag on HEK293/mfPRLR cells (macaca fascicularis, UniProt A0A2K5WXK1 25-619)
T1 construct: stably transfected into HEK293
T1 sequence: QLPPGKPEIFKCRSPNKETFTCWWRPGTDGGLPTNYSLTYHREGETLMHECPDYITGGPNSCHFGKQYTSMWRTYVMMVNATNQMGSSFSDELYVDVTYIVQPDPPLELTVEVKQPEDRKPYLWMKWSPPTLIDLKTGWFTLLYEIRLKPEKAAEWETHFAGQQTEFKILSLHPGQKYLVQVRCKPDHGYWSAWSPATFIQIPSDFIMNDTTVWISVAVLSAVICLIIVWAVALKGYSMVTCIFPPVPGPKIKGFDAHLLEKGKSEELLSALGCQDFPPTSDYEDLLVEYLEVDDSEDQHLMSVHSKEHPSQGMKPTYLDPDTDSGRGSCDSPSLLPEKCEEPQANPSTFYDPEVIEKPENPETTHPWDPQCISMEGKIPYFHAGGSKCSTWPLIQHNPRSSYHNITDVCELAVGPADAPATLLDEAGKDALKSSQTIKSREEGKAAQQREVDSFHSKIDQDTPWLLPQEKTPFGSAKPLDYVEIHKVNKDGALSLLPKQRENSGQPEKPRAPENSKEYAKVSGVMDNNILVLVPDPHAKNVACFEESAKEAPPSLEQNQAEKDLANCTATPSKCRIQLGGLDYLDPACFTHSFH
Assay: FACS on HEK293/mfPRLR cells
measured.property: FACS Cell Binding (Fold Above Background) (fold)

binder: H1H6774P (antibody, human IgG1, V domains shown, human IgG1 Fc (H1H)) VH: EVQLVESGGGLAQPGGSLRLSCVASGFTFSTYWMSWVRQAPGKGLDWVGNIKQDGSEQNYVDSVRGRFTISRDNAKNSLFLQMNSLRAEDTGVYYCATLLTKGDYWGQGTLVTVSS VL: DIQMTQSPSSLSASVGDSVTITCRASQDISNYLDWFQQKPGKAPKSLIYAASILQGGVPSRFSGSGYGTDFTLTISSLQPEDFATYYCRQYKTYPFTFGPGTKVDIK
recorded.measurement: 29
//
binder: H1H6953N (antibody, human IgG1, V domains shown, also called H1M6953N) VH: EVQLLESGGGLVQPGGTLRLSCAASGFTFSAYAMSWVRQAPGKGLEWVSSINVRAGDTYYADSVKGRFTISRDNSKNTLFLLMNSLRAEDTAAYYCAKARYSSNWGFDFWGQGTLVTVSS VL: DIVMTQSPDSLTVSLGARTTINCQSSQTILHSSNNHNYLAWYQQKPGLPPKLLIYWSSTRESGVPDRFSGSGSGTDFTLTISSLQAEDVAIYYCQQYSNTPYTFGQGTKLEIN
recorded.measurement: 29
